Molecular target: HLA-A*3002 (human)
Assay: competition, purified HLA
Details: remark: other sources report otherwise
outcome measure: IC50 (µM)

INSERT INTO assay_data (binder, numeric_readout) VALUES
  ('WFHISCLTF (modifications not checked) […]', 75.1);

// data source = patent US20060079453A1
